- EXPERIMENTAL_DETAILS: Efflux ratio of permeability in human Caco-2 cells
- Format: ADME, cell-based
VALUE_KIND: efflux ratio

(A) CN1CCC(n2cc(Nc3nc(NC4(C)CC4)c4c(=O)n(-c5cncnc5)ccc4n3)cn2)CC1
(B) CN(C)C(=O)CN1CCC(n2cc(Nc3nc(NC4(C)CC4)c4c(=O)n(C)ccc4n3)cn2)CC1
In the pair A and B , the larger recorded efflux ratio belongs to which? Bench note: the answer is the label of the chosen record.
B
(B: 8.8, A: 5)

###

- ASSAY_SYSTEM: Interleukin-1 receptor-associated kinase 4 (Homo sapiens)
- Sequence (Q9NWZ3 whole entry): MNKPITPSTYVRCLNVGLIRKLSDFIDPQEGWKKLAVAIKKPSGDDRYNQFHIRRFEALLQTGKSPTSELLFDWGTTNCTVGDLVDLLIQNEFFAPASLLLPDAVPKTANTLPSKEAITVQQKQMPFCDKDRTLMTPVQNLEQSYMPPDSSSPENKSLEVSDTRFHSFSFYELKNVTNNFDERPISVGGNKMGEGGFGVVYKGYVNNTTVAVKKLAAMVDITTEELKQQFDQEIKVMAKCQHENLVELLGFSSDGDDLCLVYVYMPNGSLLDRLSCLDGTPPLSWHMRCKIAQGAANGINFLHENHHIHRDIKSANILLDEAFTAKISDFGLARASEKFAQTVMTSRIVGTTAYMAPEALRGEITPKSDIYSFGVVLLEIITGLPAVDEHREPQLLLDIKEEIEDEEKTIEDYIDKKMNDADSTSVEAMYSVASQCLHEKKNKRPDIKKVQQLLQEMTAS
- EXPERIMENTAL_DETAILS: Inhibition of IRAK4 in IL1-stimulated human KARPAS-299 cells assessed as fluorescence intensity
- Type: cell-based
VALUE_KIND: IC50 (nM)

Here are 3 compounds together with their reported answers.
> print(dat)
                                   compound                              assay.system  value.kind  reading.unit  measurement
1  CN1CC(n2cc(Nc3nc(NC4(C)CC4)c4c(=O)n(C)ccc4n3)cn2)CCC1=O (configuration not stated)  Interleukin-1 receptor-associated kinase 4 (Homo sapiens)        IC50            nM           75
2  CN1C[C@H]2C[C@@H]1C[C@@H]2n1cc(Nc2nc(NC3(C)CC3)c3c(=O)n(C)ccc3n2)cn1  Interleukin-1 receptor-associated kinase 4 (Homo sapiens)        IC50            nM          320
3  C[C@H](F)Cn1ccc2nc(Nc3cnn([C@H]4C[C@H]5C[C@@H]4CN5C)c3)nc(NC3(C)CC3)c2c1=O  Interleukin-1 receptor-associated kinase 4 (Homo sapiens)        IC50            nM           79

(I) C[C@@H](CF)n1ccc2nc(Nc3cnn(C4CCN(C)CC4)c3)nc(NC3(C)CC3)c2c1=O
(II) CN1CCC(n2cc(Nc3nc(NC4(C)CC4)c4c(=O)n(-c5cncnc5)ccc4n3)cn2)CC1
Hello, I am sorting some records. Could you say if I or II has the smaller IC50 value? Bench note: the answer is the label of the chosen record.
II

(1) COC(=O)N1CCN([C@H]2CC[C@H](Nc3nc(Nc4cnn(C)c4)nc4ccn(C)c(=O)c34)CC2)CC1
(2) CN1CCC(n2cc(Nc3nc(NC4(C)CC4)c4c(=O)n(C5CC5)ccc4n3)cn2)CC1
(3) CN1CC[C@H](n2cc(Nc3nc(NC4(C)CC4)c4c(=O)n(C)ccc4n3)cn2)[C@H](F)C1 (racemic)
(4) CN1CCC(n2cc(Nc3nc(NC4(C)CC4)c4c(=O)n(C)ccc4n3)cn2)CC1
Please produce an ascending ranking of these compounds based on IC50. I would appreciate it if you listed the labels in the requested order.
3, 4, 2, 1
(3: 10 nM, 4: 39 nM, 2: 74 nM, 1: 150 nM)

(a) CN1CCC(n2cc(Nc3nc(NC4(C)CC4)c4c(=O)n(CC(F)F)ccc4n3)cn2)CC1
(b) C[C@H](F)Cn1ccc2nc(Nc3cnn(C4CCN(C)CC4)c3)nc(NC3(C)CC3)c2c1=O
Hello, I am sorting some records. Could you say if a or b has the smaller IC50 value? Bench note: the answer is the label of the chosen record.
b
